From: patent US20240270762A1

Entries below carry reported MIC on E. coli AG100A.

Observe how each entry below is paired with its result.
Compound	MIC
O=C(O)c1cccc2c1OB(O)[C@@H](NC(=O)[C@H](NC(=O)c1cnc3sccn3c1=O)c1ccc(P(=O)(O)O)cc1)C2 (single isomer, unassigned)	> 128 µg/mL
O=C(O)c1c(F)ccc2c1OB(O)[C@@H](NC(=O)[C@H](NC(=O)N1CCN(S(=O)(=O)c3ccc(O)c(O)c3Cl)C1=O)c1ccc(P(=O)(O)O)cc1)C2	< 1 µg/mL
O=C(O)c1c(F)ccc2c1OB(O)[C@@H](NC(=O)C(NC(=O)N1CCN(S(=O)(=O)c3ccc(O)c(O)c3Cl)C1=O)c1ccc(P(=O)(O)O)cc1)C2 (stereo partly drawn)	< 1 µg/mL

Consider the following items and state reported MIC for each.
1. CS(=O)(=O)N1CCC[C@@H]1C(=O)N[C@@H](C(=O)N[C@H]1Cc2cccc(C(=O)O)c2OB1O)c1ccc(P(=O)(O)O)cc1
2. O=C(O)c1cccc2c1OB(O)[C@@H](NC(=O)[C@H](NC(=O)c1c[nH]ccc1=O)c1ccc(P(=O)(O)O)cc1)C2
3. Nc1ncc(C(=O)N[C@@H](C(=O)N[C@H]2Cc3cccc(C(=O)O)c3OB2O)c2ccc(P(=O)(O)O)cc2)s1 (racemic)
4. O=C(N[C@@H](C(=O)N[C@H]1Cc2cccc(C(=O)O)c2OB1O)c1ccc(P(=O)(O)O)cc1)c1cnc2cccn2c1 (single isomer, unassigned)
5. CCN1CCN(C(=O)NC(C(=O)N[C@H]2Cc3cccc(C(=O)O)c3OB2O)c2ccc(CP(=O)(O)O)cc2)C(=O)C1=O (stereo partly drawn)
6. O=C(O)c1cccc2c1OB(O)[C@@H](NC(=O)[C@@H](NC(=O)c1cnc3n(c1=O)CCS3)c1ccc(P(=O)(O)O)cc1)C2 (single isomer, unassigned)

Resp:
1. > 128 µg/mL
2. 32 to 64 µg/mL
3. > 128 µg/mL
4. 32 to 64 µg/mL
5. 8 to 16 µg/mL
6. > 128 µg/mL

Consider the following items and state reported MIC for each.
1. O=C1CC[C@H](C(=O)NC(C(=O)N[C@H]2Cc3cccc(C(=O)O)c3OB2O)c2ccc(P(=O)(O)O)cc2)N1 (stereo partly drawn)
2. O=C(O)c1cccc2c1OB(O)[C@@H](NC(=O)C(NC(=O)[C@H]1CCCN1)c1ccc(P(=O)(O)O)cc1)C2 (stereo partly drawn)
3. O=C(O)c1cccc2c1OB(O)[C@@H](NC(=O)C(NC(=O)C1CC1)c1ccc(P(=O)(O)O)cc1)C2 (stereo partly drawn)

Resp:
["> 128 µg/mL", "32 to 64 µg/mL", "> 128 µg/mL"]

###

- System: P. aeruginosa CDC-0054
- Protocol: microbe, parasite or virus in culture
- Format: cell-based
- Condition: Pseudomonas aeruginosa, CDC0054, read-out: Minimum inhibitory concentration, P. aeruginosa CDC-0054
Reported Endpoint: MIC

Observe how each entry below is paired with its result.
Compound	Experimental Target	MIC
O=C(NCCCN1CCN(C(=O)NC(C(=O)N[C@H]2Cc3ccc(F)c(C(=O)O)c3OB2O)c2cc(F)c(O)c(O)c2Cl)C(=O)C1=O)c1ccncc1F (some centres unmarked) [Example 400]	P. aeruginosa CDC-0054	< 1 µg/mL
O=C(NCCCN1CCN(C(=O)N[C@H](C(=O)N[C@H]2Cc3ccc(F)c(C(=O)O)c3OB2O)c2cc(F)c(O)c(O)c2Cl)C(=O)C1=O)c1cccc(O)c1Cl [Example 302]	P. aeruginosa CDC-0054	32 to 64 µg/mL
O=C(NCCCN1CCN(C(=O)NC(C(=O)N[C@H]2Cc3ccc(F)c(C(=O)O)c3OB2O)c2cc(F)c(O)c(O)c2Cl)C(=O)C1=O)c1cccc(O)c1 (some centres unmarked) [Example 204]	P. aeruginosa CDC-0054	< 1 µg/mL
O=C(O)c1c(F)ccc2c1OB(O)[C@@H](NC(=O)C(NC(=O)N1CCN(C3CCN(C(=O)c4ccc(O)cc4O)CC3)C(=O)C1=O)c1cc(F)c(O)c(O)c1Cl)C2 (some centres unmarked) [Example 476]	P. aeruginosa CDC-0054	< 1 µg/mL
O=C(NCCCN1CCN(C(=O)NC(C(=O)N[C@H]2Cc3ccc(F)c(C(=O)O)c3OB2O)c2cc(F)c(O)c(O)c2Cl)C(=O)C1=O)Nc1cccnc1 (some centres unmarked) [Example 213]	P. aeruginosa CDC-0054	2 to 4 µg/mL

Consider the following items and state reported MIC for each.
1. O=C(O)c1c(F)ccc2c1OB(O)[C@@H](NC(=O)[C@H](NC(=O)N1CCN(C3CCN(C(=O)c4ccc(O)cc4)CC3)C1=O)c1cc(F)c(O)c(O)c1Cl)C2 (single isomer, unassigned) [Example 463]
2. O=C(NCCS(=O)(=O)N1CCN(C(=O)NC(C(=O)N[C@H]2Cc3ccc(F)c(C(=O)O)c3OB2O)c2cc(F)c(O)c(O)c2Cl)C1=O)c1cccc(O)c1 (some centres unmarked) [Example 261]
3. O=C(O)c1c(F)ccc2c1OB(O)[C@@H](NC(=O)[C@H](NC(=O)N1CCN(C3CCN(C(=O)Nc4cc(O)ccc4Cl)CC3)C1=O)c1cc(F)c(O)c(O)c1Cl)C2 (single isomer, unassigned) [Example 448]
4. O=C(O)c1c(F)ccc2c1OB(O)[C@@H](NC(=O)[C@H](NC(=O)N1CCN(C3CCN(C(=O)Nc4ccc(O)cc4)CC3)C1=O)c1cc(F)c(O)c(O)c1Cl)C2 (single isomer, unassigned) [Example 468]
5. O=C(NCCN1CCN(C(=O)NC(C(=O)N[C@H]2Cc3ccc(F)c(C(=O)O)c3OB2O)c2cc(F)c(O)c(O)c2Cl)C(=O)C1=O)Nc1cccc(O)c1 (some centres unmarked) [Example 220]
6. O=C(NCCCN1CCN(C(=O)N[C@@H](C(=O)N[C@H]2Cc3ccc(F)c(C(=O)O)c3OB2O)c2cc(F)c(O)c(O)c2Cl)C(=O)C1=O)c1c(F)cc(O)cc1F (racemic) [Example 420]
7. O=C(O)c1c(F)ccc2c1OB(O)[C@@H](NC(=O)[C@@H](NC(=O)N1CCN(Cc3ccc(O)c(O)c3Cl)C(=O)C1=O)c1ccc(P(=O)(O)O)cc1)C2 (single isomer, unassigned) [Example 161]
8. O=C(NCCCN1CCN(C(=O)NC(C(=O)N[C@H]2Cc3ccc(F)c(C(=O)O)c3OB2O)c2cc(F)c(O)c(O)c2Cl)C(=O)C1=O)c1ccccc1 (some centres unmarked) [Example 202]

Resp:
1: < 1 µg/mL; 2: 2 to 4 µg/mL; 3: < 1 µg/mL; 4: < 1 µg/mL; 5: 8 to 16 µg/mL; 6: 2 to 4 µg/mL; 7: < 1 µg/mL; 8: < 1 µg/mL
